- Protocol notes: Antiproliferative activity against human DU145 cells assessed as cell growth at 10^-5 M after 48 hrs by sulforhodamine B assay
- Assay type: functional
- Condition info: DU-145, 48 h, read-out: Activity
Experimental endpoint: growth at 10 µM (%)
Answer format: numeric, % implied, no suffix.

Here's what some known entries look like.
CNC(=O)c1cc(Oc2ccc3nc(NC(=O)c4ccc(Cl)c(C(F)(F)F)c4)sc3c2)ccn1; 73
CNC(=O)c1cc(Oc2ccc3nc(NC(=O)Nc4ccc(Cl)cc4)sc3c2)ccn1; 53.2
CNC(=O)c1cc(Oc2ccc3nc(NC(=O)Nc4ccc(F)cc4F)sc3c2)ccn1; 65.7
CNC(=O)c1cc(Oc2ccc3nc(NC(=O)c4cc(C(F)(F)F)cc(C(F)(F)F)c4)sc3c2)ccn1; 16
CNC(=O)c1cc(Oc2ccc3nc(NC(=O)c4ccc5ncccc5c4)sc3c2)ccn1; 105

So, `CNC(=O)c1cc(Oc2ccc3nc(NC(=O)c4cccc(F)n4)sc3c2)ccn1` ? Its growth at 10 µM was 99.2

The value of growth at 10 µM measured for the molecule `CNC(=O)c1cc(Oc2ccc3nc(NC(=O)Nc4ccc(Cl)c(C(F)(F)F)c4)sc3c2)ccn1` turned out to be -10

For reference, reported growth at 10 µM for `CNC(=O)c1cc(Oc2ccc3nc(NC(=O)Nc4cc(C(F)(F)F)cc(C(F)(F)F)c4)sc3c2)ccn1` stands at -69

So for `CNC(=O)c1cc(Oc2ccc3nc(NC(=O)Nc4ccc(C(F)(F)F)cc4)sc3c2)ccn1` , the logged growth at 10 µM turned out to be 48.9

Lookup result for `CNC(=O)c1cc(Oc2ccc3nc(NC(=O)c4ccc5c(c4)OCCO5)sc3c2)ccn1` ; measured growth at 10 µM: 98.5

// sample `CNC(=O)c1cc(Oc2ccc3nc(NC(=O)Nc4ccc(Cl)c(Cl)c4)sc3c2)ccn1` , its growth at 10 µM was -25

----------
Consider the following molecules and their measured TGI readings.
- System: 786-0
- Protocol notes: Antiproliferative activity against human 786-0 cells assessed as growth inhibition after 48 hrs by sulforhodamine B assay
- Type: functional
- Condition info: 786-0, 48 h

The examples below pair each entry with its known result.
CNC(=O)c1cc(Oc2ccc3nc(NC(=O)Nc4ccc(Cl)c(Cl)c4)sc3c2)ccn1; 5.11 µM
CNC(=O)c1cc(Oc2ccc3nc(NC(=O)c4cc(C(F)(F)F)cc(C(F)(F)F)c4)sc3c2)ccn1; 8.07 µM
CNC(=O)c1cc(Oc2ccc3nc(NC(=O)Nc4ccc(Cl)c(C(F)(F)F)c4)sc3c2)ccn1; 3.4 µM
CNC(=O)c1cc(Oc2ccc(NC(=O)Nc3ccc(Cl)c(C(F)(F)F)c3)cc2)ccn1; 10 µM

// next entry
// sample `CNC(=O)c1cc(Oc2ccc3nc(NC(=O)Nc4cc(C(F)(F)F)cc(C(F)(F)F)c4)sc3c2)ccn1` , its TGI was 2.86 µM

----------
- System: MDA-MB-435
- Protocol notes: Antiproliferative activity against human MDA-MB-435 cells assessed as cell growth at 10^-7 M after 48 hrs by sulforhodamine B assay
- Format: functional
- Condition info: MDA-MB-435, 48 h, read-out: Activity
Experimental endpoint: growth at 0.1 µM
Provide a numeric answer, followed by its unit.

Input `CNC(=O)c1cc(Oc2ccc3nc(NC(=O)c4cc(C(F)(F)F)cc(C(F)(F)F)c4)sc3c2)ccn1` . Output growth at 0.1 µM: 92%

Value of growth at 0.1 µM reported for the molecule `CNC(=O)c1cc(Oc2ccc3nc(NC(=O)Nc4cc(C(F)(F)F)cc(C(F)(F)F)c4)sc3c2)ccn1` is 95%

// field: growth at 0.1 µM; key: `CNC(=O)c1cc(Oc2ccc3nc(NC(=O)Nc4ccc(Cl)c(C(F)(F)F)c4)sc3c2)ccn1` ; value = 92%

Consider `CNC(=O)c1cc(Oc2ccc3nc(NC(=O)Nc4ccc(Cl)c(Cl)c4)sc3c2)ccn1` . Its measured growth at 0.1 µM is 95%

Reference source: ChEMBL document CHEMBL3797052
